- System Tested: full-length human PLD1 (Homo sapiens (Human))
- Sequence (Q13393 other isoform, or with tags, fused parts or gaps): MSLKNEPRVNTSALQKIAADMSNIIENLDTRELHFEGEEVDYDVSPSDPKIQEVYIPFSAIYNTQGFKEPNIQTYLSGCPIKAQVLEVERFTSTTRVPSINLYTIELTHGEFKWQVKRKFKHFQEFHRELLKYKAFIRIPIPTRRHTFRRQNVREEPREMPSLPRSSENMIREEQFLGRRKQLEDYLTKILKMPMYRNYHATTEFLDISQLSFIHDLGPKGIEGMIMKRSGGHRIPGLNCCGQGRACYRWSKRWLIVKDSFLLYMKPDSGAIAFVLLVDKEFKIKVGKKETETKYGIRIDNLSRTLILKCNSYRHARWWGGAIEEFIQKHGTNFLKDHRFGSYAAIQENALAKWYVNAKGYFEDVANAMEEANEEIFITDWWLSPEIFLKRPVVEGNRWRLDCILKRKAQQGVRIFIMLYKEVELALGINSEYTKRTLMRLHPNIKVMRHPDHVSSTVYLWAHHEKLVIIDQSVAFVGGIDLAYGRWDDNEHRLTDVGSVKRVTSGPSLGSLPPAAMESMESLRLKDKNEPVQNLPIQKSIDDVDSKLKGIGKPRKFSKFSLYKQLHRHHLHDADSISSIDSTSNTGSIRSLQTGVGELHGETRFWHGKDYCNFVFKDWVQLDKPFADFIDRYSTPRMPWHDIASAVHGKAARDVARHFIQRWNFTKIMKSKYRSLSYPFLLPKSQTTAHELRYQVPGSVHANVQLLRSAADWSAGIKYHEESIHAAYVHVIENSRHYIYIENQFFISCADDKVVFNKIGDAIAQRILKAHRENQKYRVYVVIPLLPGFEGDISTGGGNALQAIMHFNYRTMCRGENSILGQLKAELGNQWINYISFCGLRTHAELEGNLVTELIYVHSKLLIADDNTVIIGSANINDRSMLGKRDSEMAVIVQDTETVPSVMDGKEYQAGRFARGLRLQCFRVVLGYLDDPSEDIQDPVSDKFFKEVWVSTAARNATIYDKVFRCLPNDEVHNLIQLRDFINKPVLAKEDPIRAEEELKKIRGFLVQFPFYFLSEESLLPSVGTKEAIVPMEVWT
- Assay Procedure: Evaluation of human PLD1 enzyme inhibitory activity (Amplex Red / choline oxidase fluorescence)
- Assay type: biochemical
- Conditions Used: full-length human PLD1 enzyme; read-out: PLD1 IC50
Experimental Readout: pIC50
# pIC50 = -log10(concentration in molar units)

Exam item: Param item = CNC(=O)C(=O)N[C@@H](C)C[C@H]1CC[C@]2(CC1)OC(=O)NN=C2c1cccnc1 [Example 17] ; retrieve measured pIC50.
Marked response: 6.09

Exam item: Again, but for Cc1ncccc1C1=NNC(=O)O[C@]12CC[C@@H](C[C@H](C)NC(=O)c1cc3ccccc3o1)CC2 [Example 104]
Marked response: 7.12

Exam item: Moving on to the next molecule: C[C@@H](C[C@H]1CC[C@]2(CC1)OC(=O)NN=C2c1cc(C#N)ccc1Br)NC(=O)C(=O)NC1CC1 [Example 292]
Marked response: 7.64

Exam item: Similarly, CNC(=O)C(=O)N[C@@H](C)C[C@H]1CC[C@]2(CC1)OC(=O)NN=C2c1ncccc1Br [Example 2-013] ?
Marked response: 7.92

Exam item: Do the same for C[C@@H](C[C@H]1CC[C@]2(CC1)OC(=O)NN=C2c1ccc(C#N)cc1Br)NC(=O)c1cc(C2CC2)n[nH]1 [Example 2-072] please
Marked response: 7.85

Exam item: What do you get for CNC(=O)C(=O)N[C@@H](C)CN1CCC2(CC1)OC(=O)NN=C2c1ccc(C#N)cc1C(F)(F)F [Example 327] ?
Marked response: 6.96

Exam item: Same for CNC(=O)C(=O)N[C@@H](C)CN1CC[C@@]2(C[C@H]1C)OC(=O)NN=C2c1ccc(C#N)cc1Cl [Example 233]
Marked response: 5.73

Exam item: Further, for C[C@@H](C[C@H]1CC[C@]2(CC1)OC(=O)NN=C2c1cc(C#N)ccc1Br)NC(=O)NC1CC1 [Example 222] ?
Marked response: 7.23

Exam item: Same again, this time with CCCC(=O)N[C@@H](C)C[C@H]1CC[C@]2(CC1)OC(=O)NN=C2c1ccc(F)cc1Br [Example 42]
Marked response: 6.61

Exam item: Input CNC(=O)C(=O)N[C@@H](C)C[C@H]1CC[C@]2(CC1)OC(=O)NN=C2c1ccc(F)cc1Cl [Example 44]
Marked response: 7.74

Exam item: Repeat for the following molecule: CNC(=O)C(=O)N[C@@H](C)C[C@H]1CC[C@]2(CC1)OC(=O)NN=C2c1cnc(C)cc1C [Example 173]
Marked response: 7.54

Exam item: Please answer likewise for CNC(=O)C(=O)N[C@@H](C)C[C@H]1CC[C@]2(CC1)OC(=O)NN=C2c1cccc(Br)c1 [Example 24]
Marked response: 7.39

Exam item: Next record, please: CNC(=O)C(=O)N[C@@H](C)CN1CCC2(CC1)OC(=O)NN=C2c1cc(C(=O)OC)ccc1Br [Example 2-033]
Marked response: 7.46

Exam item: Would you kindly repeat that for Cc1cc(C(=O)N[C@@H](C)C[C@H]2CC[C@]3(CC2)OC(=O)NN=C3c2cccc(Br)c2)[nH]n1 [Example 25] ?
Marked response: 6.97

Exam item: // query: Cc1cc(F)ccc1C1=NNC(=O)O[C@]12CC[C@@H](C[C@H](C)NC(=O)c1ccc(Cl)cc1F)CC2 [Example 88]
Marked response: 7.25

Exam item: Please give the result for C[C@@H](C[C@H]1CC[C@]2(CC1)OC(=O)NN=C2c1ccc(S(C)(=O)=O)cc1Br)NC(=O)c1cc(Cl)no1 [Example 48] too.
Marked response: 7.85

Exam item: How about this molecule: C[C@@H](C[C@H]1CC[C@]2(CC1)OC(=O)NN=C2c1ccc(C#N)cc1Br)NC(=O)N1Cc2ccccc2C1 [Example 109]
Marked response: 7.92

Exam item: Can you handle Cc1ccc(C(=O)N[C@@H](C)C[C@H]2CC[C@]3(CC2)OC(=O)NN=C3c2ccc(F)cc2Br)nn1 [Example 252] next?
Marked response: 6.76

Exam item: // next record Cc1cc(C(=O)N[C@@H](C)C[C@H]2CC[C@]3(CC2)OC(=O)NN=C3c2ccc(S(C)(=O)=O)cc2Br)[nH]n1 [Example 31]
Marked response: 7.62

Exam item: Next: CNC(=O)C(=O)N[C@@H](C)CN1CCC2(CC1)OC(=O)NN=C2c1ccccc1SC(F)(F)F [Example 2-021]
Marked response: 7.57

Exam item: Now try CNC(=O)C(=O)N[C@@H](C)CC1CCC2(CC1)OC(=O)NN=C2c1ccncc1Br (mixture of isomers) [Example 120] .
Marked response: 7.92

Exam item: Now give it for CNC(=O)C(=O)N[C@H](C)CN1CCC2(CC1)OC(=O)NN=C2c1ccc(F)cc1Br [Example 2-011] too.
Marked response: 5.68

Exam item: For CNC(=O)C(=O)N[C@@H](C)CN1CCC2(CC1)OC(=O)NN=C2c1cc(C(C)(C)O)ccc1Br [Example 2-034] then?
Marked response: 7.51

Exam item: Moving on to the next molecule: Cc1cc(C(=O)N[C@@H](C)C[C@H]2CC[C@]3(CC2)OC(=O)NN=C3c2cnc(N3CC4CCC(C3)O4)cc2Cl)[nH]n1 [Example 247]
Marked response: 7.85

Exam item: Proceed to CNC(=O)C(=O)N[C@@H](C)C[C@H]1CC[C@]2(CC1)OC(=O)NN=C2c1cnc(O)cc1C [Example 162]
Marked response: 6.49

Exam item: Next molecule: Cc1cnc(C(=O)N[C@@H](C)C[C@H]2CC[C@]3(CC2)OC(=O)NN=C3c2ccc(F)cc2Br)cn1 [Example 253]
Marked response: 6.60

Exam item: Query CNC(=O)C(=O)NCC[C@H]1CC[C@]2(CC1)OC(=O)NN=C2c1ccc(F)cc1Br [Example 47] next
Marked response: 6.92
